molecular target: BRD4 N-terminal tandem bromodomain fragment (BD1-BD2) (Homo sapiens, UniProt O60885 49-460); assay: NMR; 80 mM KCl; 1:2 BRD4:G4 model; SPR: 10 mM HEPES pH 7.4, 150 mM NaCl, 50 uM EDTA, 0.005% P20, 24 C; MST: PBS, 0.05% Tween-20, 22 C; NMR: 20 mM Na-phosphate pH 7.5, 80 mM KCl, 5% D2O, 25 C; nucleosome: 20 mM Tris-HCl pH 8.0, NaCl 2 M to 250 mM; details: protein: recombinant; tags: N-terminal His8 (RED-tris-NTA label for MST; Ni-NTA capture for SPR); parallel 3-quartet G4; unimolecular fraction about 50% in the NMR sample
readout-type: Kd
Value and unit, in that order.

So what does the record say about Kd for GGGAGGGAGGGAGGG (structured_DNA) [G4 (SE G4)] ?
6 µM

Origin of values: paper PMC12311796
